Test system: Staphylococcus aureus
Test: microbe, parasite or virus in culture
Details: 29213
Description: Antibacterial activity against Staphylococcus aureus 29213 by microdilution method
Value Kind: MIC (µg/mL)
One number for each entry, in µg/mL.

{"Chemical Structure": "CN(Cc1cc2ccccc2n1C)C(=O)/C=C/c1cnc2c(c1)CNCC(=O)N2", "Value Kind": "MIC", "Readout Value": 0.125}
{"Chemical Structure": "Cc1c(CN(C)C(=O)/C=C/c2cnc3c(c2)CCC(=O)N3)sc2ccccc12", "Value Kind": "MIC", "Readout Value": 0.125}
{"Chemical Structure": "CN1CC(=O)Nc2ncc(/C=C/C(=O)N(C)Cc3cc4ccccc4n3C)cc2C1", "Value Kind": "MIC", "Readout Value": 4}
{"Chemical Structure": "Cc1c(CN(C)C(=O)/C=C/c2cnc3c(c2)CNCCN3)oc2ccccc12", "Value Kind": "MIC", "Readout Value": 0.063}

Consider the additional molecule presented here.
Report measured MIC; entry is `CN(Cc1cc2ccccc2n1C)C(=O)/C=C/c1cnc2c(c1)NCCC(=O)N2`
0.25
